# TEST CONTEXT: buffer; pH 7.4; 200.0 µM
Could you please report measured solubility kinetic for the items listed next?
Entry rule: numbers only, all in µg/mL.

Query block: So what does the record say about solubility kinetic for CN1c2ccccc2C(=O)/C(=C\Nc2ccc(F)cc2F)S1(=O)=O ?
Result block: 1

Query block: Same again, this time with O=C(Oc1ccccc1)N1CCN(c2ccccc2F)CC1
Result block: 39.5

Query block: Same again, this time with O=C(NCCCc1ccccc1)c1cccc(Br)c1
Result block: 19

Query block: Same again, this time with CC(OC(=O)c1ccc(Cl)cc1O)C(=O)NCCC1=CCCCC1 (centres undefined)
Result block: 32.9

Query block: Same again, this time with O=c1c2ccccc2nc(/C=C/c2ccccc2O)n1-c1ccccc1O
Result block: 30.8

Query block: Same again, this time with Cn1c(N)c(C(=O)COC(=O)Cc2ccc(Br)cc2)c(=O)n(C)c1=O
Result block: 0.7

Query block: Same again, this time with Cn1c(=O)n(C)c2cc(NC(=O)c3ccc(F)cc3)c(Br)cc21
Result block: 8.2

Query block: Same again, this time with CCC1CN(C(=O)NCc2ccc(C)cc2)c2cc(C)ccc2O1 (centres undefined)
Result block: 0.5

Query block: Same again, this time with Cc1ccnc(NC(=O)CCNC(=O)c2ccc(Cl)cc2)c1
Result block: 14.9

Query block: Same again, this time with N#Cc1ccc(C(=O)N(Cc2ccccc2)c2ccccc2)cc1
Result block: 26.4

Query block: Same again, this time with CCCCNC(=S)Nc1ccc(F)cc1
Result block: 30.1

Query block: Same again, this time with Cc1ccc(N(CC(=O)NC2CCCC2)C(=O)c2ccc(C)s2)cc1
Result block: 49.2

----------
# TEST CONTEXT: buffer; pH 7.4; 200.0 µM
Decide using solubility kinetic: a value greater than or equal to 8 µg/mL is Yes, a smaller one is No.

Query block: Is solubility kinetic for Cc1cccc(NCc2ccccc2)c1 at or above 8 µg/mL?
Result block: No

Query block: Same again, this time with Fc1ccc(Nc2ccnc(C(F)(F)F)c2)cc1
Result block: Yes

Query block: Same again, this time with O=C(COC(=O)Cc1ccccc1F)Nc1cccc(F)c1
Result block: Yes

Query block: Same again, this time with Cc1ccccc1C1NC(c2ccccc2C)C(C)C(=O)C1C (stereo not drawn)
Result block: No

Query block: Same again, this time with N#Cc1ccc(NC(=O)CN2C(=O)NC3(CCCC3)C2=O)cc1
Result block: Yes

Query block: Same again, this time with Cl.OC1(CNCc2ccccc2)C2CC3CC(C2)CC1C3 (stereo not drawn)
Result block: Yes

Query block: Same again, this time with CC(C)(C)NCC(O)COc1cccc2c1CC(O)C(O)C2 (stereo not drawn)
Result block: Yes

Query block: Same again, this time with O=C(NCc1cccc(C(F)(F)F)c1)c1ccc[nH]1
Result block: Yes

Query block: Same again, this time with C=CCOC(=O)c1cn(CC)c2nc(C)ccc2c1=O
Result block: Yes

Query block: Same again, this time with Cc1cc2nc(NCCCO)n(CC(=O)c3cc(C(C)(C)C)c(O)c(C(C)(C)C)c3)c2cc1C
Result block: No

Query block: Same again, this time with COc1ccc(CNCCC2(C(C)C)CCOC(C)(C)C2)cc1 (stereo not drawn)
Result block: Yes

Query block: Same again, this time with O=C(NC(=S)N1CCCC1)c1ccccc1Cl
Result block: Yes

Query block: Same again, this time with CC(C)(C)c1nnc(NS(=O)(=O)c2ccc([N+](=O)[O-])cc2)s1
Result block: Yes

Query block: Same again, this time with O=c1[nH]c(/C=C/c2ccccc2Cl)nc2ccccc12
Result block: No

Query block: Same again, this time with CC(=O)Nc1ccc(NS(=O)(=O)c2ccc(C)cc2)cc1[N+](=O)[O-]
Result block: Yes

Query block: Same again, this time with Cc1ccc(F)cc1NC(=O)N1c2ccccc2NC(=O)CC1C (stereo not drawn)
Result block: Yes

Query block: Same again, this time with COc1ccc(CCC(=O)NCC23CC4CC(CC(C4)C2)C3)cc1
Result block: Yes

Query block: Same again, this time with Cc1ccc(OCC(=O)N2CCc3ccccc32)c([N+](=O)[O-])n1
Result block: No

Query block: Same again, this time with Cc1ccc(S(=O)(=O)N2CCCC(N3CCOCC3)C2)cc1Cl (stereo not drawn)
Result block: Yes

Query block: Same again, this time with CNS(=O)(=O)c1cccc(C(=O)OCC(=O)c2ccc3[nH]c(=O)[nH]c3c2)c1
Result block: Yes

Query block: Same again, this time with O=C(Nc1nnc(CCN2CCCCC2)s1)c1ccccc1Cl
Result block: Yes

Query block: Same again, this time with Cc1ccc(OCc2ccccc2Br)c([N+](=O)[O-])n1
Result block: No

Query block: Same again, this time with CCc1cccc(C)c1NC(=O)CSc1nc(C)c(C)o1
Result block: Yes

Query block: Same again, this time with CC(Sc1nc2c(c(=O)[nH]1)CCCC2)C(=O)Nc1ccccc1C#N (stereo not drawn)
Result block: Yes

Query block: Same again, this time with O=C(CNC(=O)c1ccc(Br)o1)NCC1CCCO1 (stereo not drawn)
Result block: Yes

Query block: Same again, this time with Cn1cc(C(C[N+](=O)[O-])c2ccccc2)c2ccccc21 (stereo not drawn)
Result block: No

Query block: Same again, this time with CCSC1=NCCN1C(=O)Cc1ccc(-c2ccccc2)cc1
Result block: No

Query block: Same again, this time with COc1ccc(C(=O)NCC(=O)OCC(=O)NCc2ccc3c(c2)OCO3)cc1
Result block: Yes

Query block: Same again, this time with CCOC(=O)C1CCN(Cc2ccc3ccccc3c2)CC1
Result block: Yes

Query block: Same again, this time with c1cnc2c(c1)ccc1ncccc12
Result block: Yes

Query block: Same again, this time with O=C(c1ccc(F)cc1F)N1CCN(c2ccccn2)CC1
Result block: Yes

Query block: Same again, this time with Cc1cc(C(=O)COC(=O)c2cccn2C)c(C)n1Cc1ccco1
Result block: No

Query block: Same again, this time with O=C(N/N=C/c1ccccc1Cl)C1CC1
Result block: Yes

Query block: Same again, this time with O=C(O)c1ccc(CNC(=O)C23CC4CC(CC(C4)C2)C3)cc1
Result block: Yes

Query block: Same again, this time with [Cl-].c1ccc(Cn2c[n+](Cc3ccccc3)cn2)cc1
Result block: Yes

Query block: Same again, this time with COc1cccc(Nc2nc3cc(OC)ccc3cc2C#N)c1
Result block: No

Query block: Same again, this time with Cc1ccc2c(C(=O)CN3CCCCC3)c(C)[nH]c2c1
Result block: Yes

Query block: Same again, this time with Nc1nc(Nc2cccc(Cl)c2)nc(NCc2ccco2)c1[N+](=O)[O-]
Result block: No

Query block: Same again, this time with O=C(NNC(=O)c1ccccn1)c1ccc(OC(F)F)cc1
Result block: Yes

Query block: Same again, this time with CCc1ccc(C(CC(=O)O)N2Cc3ccccc3C2=O)cc1 (stereo not drawn)
Result block: Yes

Query block: Same again, this time with CCOC(=O)/C=c1\s/c(=C(\C#N)C(N)=O)n(-c2ccccc2)c1=O
Result block: Yes

Query block: Same again, this time with CCN1C(=O)/C(=C\c2cccc(OC(=O)c3ccco3)c2)SC1=S
Result block: No

Query block: Same again, this time with CC(C)CC1(C)NC(=O)N(CC(=O)Nc2ccc(F)c(F)c2F)C1=O (stereo not drawn)
Result block: Yes

Query block: Same again, this time with COc1c(Cl)cccc1-c1cn2ccccc2n1
Result block: No

Query block: Same again, this time with Cc1nc(NC(=O)CN2CCCCC2)sc1C(=O)N(C)C
Result block: Yes

Query block: Same again, this time with Cc1cc(C)c(C)c(OCCn2ccnc2)c1
Result block: Yes

Query block: Same again, this time with O=C(O)c1ccc(NC(=O)c2cc3ccccc3o2)cc1
Result block: Yes

----------
# TEST CONTEXT: buffer; pH 7.4; 200.0 µM
Could you please report measured solubility kinetic for the items listed next?
Entry rule: numbers only, all in µg/mL.

Query block: So what does the record say about solubility kinetic for Cc1ccc(N2CC(C(=O)N3CCOCC3)CC2=O)cc1C (configuration not stated) ?
Result block: 34.3

Query block: Same again, this time with N/C(Cc1ccc([N+](=O)[O-])cc1)=N\OC(=O)C1CCCCC1
Result block: 41.2

Query block: Same again, this time with CN(C)CCC(=O)C(Cc1ccccc1)c1ccccc1.Cl (configuration not stated)
Result block: 44.7

Query block: Same again, this time with CCOc1ccc(S(=O)(=O)NCc2cccnc2)c2ccccc12
Result block: 38.5

Query block: Same again, this time with O=C(CN1CCCCC1)Nc1nc(-c2ccc(F)c(F)c2)cs1
Result block: 2

Query block: Same again, this time with CSc1ccccc1NC(=O)COC(=O)CCc1ccccc1
Result block: 27.8

Query block: Same again, this time with O=C(Nc1cccc(Cl)c1)NC1CCS(=O)(=O)C1 (configuration not stated)
Result block: 36.4

Query block: Same again, this time with CC(=O)c1cccc(NC(=O)Nc2ccc3c(c2)CCC3)c1
Result block: 0.3

Query block: Same again, this time with CCc1nc2sc3ccccc3c(=O)c2c(=O)n1Cc1ccc(OC)cc1
Result block: 0.8

Query block: Same again, this time with CC(C)CN(C(=O)CCNC(=O)c1ccc([N+](=O)[O-])cc1)C1CCS(=O)(=O)C1 (configuration not stated)
Result block: 57

Query block: Same again, this time with N#Cc1cc2cc3c(cc2nc1SCC(=O)N1CCOCC1)OCO3
Result block: 4.9

Query block: Same again, this time with COc1ccc(S(=O)(=O)NC2CC3CCC2C3)cc1 (configuration not stated)
Result block: 36.5

Query block: Same again, this time with Cc1ccc(CNC(=O)CCCN2C(=S)NC(C)(C)CC2C)cc1 (configuration not stated)
Result block: 37

Query block: Same again, this time with COc1ccccc1NC(=S)NC(NC(C)=O)C(Cl)(Cl)Cl (configuration not stated)
Result block: 19

Query block: Same again, this time with Cc1ccc(C)c(NC(=O)C2CCCN2C(=O)NC2CCCCC2)c1 (configuration not stated)
Result block: 29

Query block: Same again, this time with COc1ccc(N=CC=C2OC(C)(C)C(C)(C)O2)cc1OC.Cl
Result block: 47.1

Query block: Same again, this time with CCOc1ccc(N2C(=O)CC(Cc3cc(C)cc(C)c3)C2=O)cc1 (configuration not stated)
Result block: 4

Query block: Same again, this time with COc1ccc2c(c1OC)C(=O)N(c1ccc(F)cc1)C2
Result block: 3.8

Query block: Same again, this time with COc1ccc(S(=O)(=O)/C(C#N)=C/Nc2ccccc2F)cc1
Result block: 3.3

Query block: Same again, this time with CC(C)CCN(CCC(C)C)C(=O)Cc1c(O)c2ccccc2[nH]c1=O
Result block: 2.7

Query block: Same again, this time with COc1ccc2cc(C(=O)N3CCN(c4ccc(F)cc4)CC3)[nH]c2c1
Result block: 1.6

Query block: Same again, this time with NC(=O)[C@@H]1CCCN1Cc1nc(-c2ccccc2)no1
Result block: 31.9

Query block: Same again, this time with CN(C)c1nc(NCc2ccccc2)nc(SCC(N)=O)n1
Result block: 43.7

Query block: Same again, this time with C=C(C)c1cccc(C(C)(C)NC(=O)N2CCN(c3ccccc3)CC2)c1
Result block: 0.3

Query block: Same again, this time with CCc1ccccc1NC(=S)N(CCOC)C(C)c1ccco1 (configuration not stated)
Result block: 35.1

Query block: Same again, this time with Fc1ccc(CO/N=C2\CCCc3nonc32)cc1
Result block: 3

Query block: Same again, this time with COc1cc([N+](=O)[O-])ccc1NC(=O)NCc1cccnc1
Result block: 17

Query block: Same again, this time with Cc1cccc2[nH]c3c(N4CC=C(c5ccc(F)cc5)CC4)ncnc3c12
Result block: 1

This collection of values is drawn from PubChem BioAssay AID1996.
